Just for reference, the supplement of paper PMC6755084 is where these values come from.

B1: F1*; the commonest letter at each place (parent)
chain: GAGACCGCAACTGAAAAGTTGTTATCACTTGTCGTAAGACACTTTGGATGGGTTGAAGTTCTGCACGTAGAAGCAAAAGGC

Variants of: B1
measurement notes: fraction ligated after 30 min (ligated reads / total reads); higher = more ligase activity
study conditions: with F1*sub RNA substrate (template-directed ligation), 42 °C
List of fraction ligated values.

{"columns": ["mutation list", "fraction ligated"],
 "data": [
  ["A39C T43C", 0.815],
  ["A37T T43G", 0.804],
  ["G38A G55C", 0.781],
  ["T35A A41C", 0.792],
  ["T29A T49A", 0.784],
  ["T23C T29C", 0.779],
  ["A37C A56G", 0.784],
  ["T35C G46C", 0.792],
  ["T23C T43A", 0.815],
  ["T23G T30G", 0.8],
  ["A27G A36G", 0.805],
  ["T25G T35G", 0.804],
  ["T30G T49G", 0.808],
  ["A27G A39G", 0.799],
  ["T23C A57T", 0.794],
  ["A41T G55A", 0.809],
  ["C26A T43A", 0.809],
  ["C26T C40A", 0.797],
  ["G34T G46C", 0.778],
  ["T32A A37T", 0.82],
  ["G38T T45A", 0.783]
]}
